Assign growth inhibition to each entry below.
# assay-overview: NCI Yeast Anticancer Drug Screen. Data for the mlh1 rad18 strain (AID 175)
# condition-details: S. cerevisiae mlh1 rad18 strain growth inhibition, active compounds read high; at 50.0 µM unless noted
Compounds without any hit were thinned out: in the full panel of roughly 79,000, 15% have a hit.
All answers are understood in %, so give the number only.

Inquiry: Reported growth inhibition for N#CCCC(C#N)(CCC#N)C(N)=O : what is it?
Reply text: 1.55

Inquiry: Look at this molecule and give its reported growth inhibition. O=P(O)(O)OP(=O)(O)O
Reply text: 25.8

Inquiry: # lookup: growth inhibition of CC1(C)C2CCC3(C2)CS(=O)(=O)N2OC231 (stereo not drawn)
Reply text: -9.7

Inquiry: Consider the molecule shown here: O=C(O)C1=CCCc2ccc3ccccc3c21 What is its recorded growth inhibition?
Reply text: 6.25

Inquiry: Field request: growth inhibition | item: O=c1[nH]nc(-c2ccccc2)nc1/C(=N\Nc1ccccc1)c1ccccc1
Reply text: 14.7

Inquiry: Give its growth inhibition value. Item: BrCC1CN=C(c2ccccc2)O1 (stereo not drawn)
Reply text: -2.95

Inquiry: I'd like to know its growth inhibition. The molecule in question is c1ccc(OC2=NC3=S(S2)SC(Oc2ccccc2)=N3)cc1
Reply text: -3.35

Inquiry: # lookup: growth inhibition of COC(=O)CC1(C(=O)OC)NC(=O)c2cc(OC)c(Cl)cc2N1 (stereo not drawn)
Reply text: -19.6

Inquiry: Please report the recorded growth inhibition for CCCCCCCCCC(=O)Oc1cccc2c1CC(C[Se]c1ccccc1)C(=O)O2 (stereo not drawn) .
Reply text: 5.7

Inquiry: Entry under review: O=C(O)c1ccccc1SCCO . Reported growth inhibition?
Reply text: -3.8

Inquiry: // returns reported growth inhibition for input Cc1ccc(S(=O)(=O)CC(=O)NC(C)C)cc1
Reply text: 20.8

Inquiry: Endpoint output: growth inhibition of O=C(F)c1cccc2ccccc12 . Value?
Reply text: -31.3

Inquiry: Given the molecule COc1ccc(O)c2c1C(=O)CCCC2=O , what is its reported growth inhibition?
Reply text: 0.7

* * *

# assay-overview: NCI Yeast Anticancer Drug Screen. Data for the bub3 strain (AID 167)
# condition-details: S. cerevisiae bub3 mutant strain, active compounds read high; at 50.0 µM unless noted
About 79,000 compounds went through this panel and 15% of them were active in at least one assay; those are over-represented in the sample as a whole. Calls of active or inactive are those of the source. Cut-off read from the data, not from the text of the source: active = growth inhibition above about 70%; inactive = the rest.
measurement-name: growth inhibition

Inquiry: I have this compound here, CCOc1ccccc1N1CCN(CC(O)CSc2ccccc2)CC1 (centres undefined) , and I need its recorded growth inhibition.
Reply text: 4.95% (inactive)

Inquiry: Please give the measured growth inhibition for this compound: CCO[C@@H]1OC(=O)[C@H]2C(c3ccccc3Cl)=NO[C@@H]12
Reply text: 14.2% (inactive)

Inquiry: Name the recorded growth inhibition for CCOC(=O)CN1C(=O)/C(=C2\SC(=S)N(CC(=O)OCC)C2=O)SC1=S .
Reply text: -3.9% (inactive)

Inquiry: So what does the record say about growth inhibition for CCCCCCCCCCCC[N+](C)([O-])CCCCCC[N+](C)([O-])CCCCCCCCCCCC (centres undefined) ?
Reply text: 96.5% (active)

Inquiry: So what does the record say about growth inhibition for O=C(Cc1ccccc1)N/N=C(/c1nc2ccc([N+](=O)[O-])cc2[nH]c1=O)C(O)c1ccccc1Cl (centres undefined) ?
Reply text: 5.7% (inactive)

Inquiry: For the compound shown here, Cc1nc2ccccc2c(=O)n1NC(=O)Cc1ccccc1 , give the reported growth inhibition.
Reply text: -12.4% (inactive)

Inquiry: Query: growth inhibition; subject: CS(C)=NC(=Nc1ccccc1)c1ccccc1
Reply text: 9.7% (inactive)

Inquiry: // growth inhibition lookup, key: O=[N+]([O-])/C=C/c1cn(CCCCCCCCCCCCn2cc(/C=C/[N+](=O)[O-])c3ccccc32)c2ccccc12
Reply text: -19.4% (inactive)

Inquiry: Please look up its growth inhibition: COC(=O)C(=O)c1c(C(=O)OC)nc2nnc(N)n2c1-c1cccc([N+](=O)[O-])c1
Reply text: 12.4% (inactive)

Inquiry: // lookup growth inhibition for Cc1nc2c(N)n[nH]c(=O)n2n1
Reply text: 7.15% (inactive)

Inquiry: # input compound: CC1CCC(C(=O)O)(C(Br)C(=O)O)CC1 (centres undefined) ; wanted: its growth inhibition
Reply text: -20.8% (inactive)

Inquiry: Recorded growth inhibition for CC1=C(N2CCOCC2)C(N2CCOCC2)C(C)C1=O (centres undefined) , please?
Reply text: 9.1% (inactive)

Inquiry: Requested field: growth inhibition. Item: Cn1c2c(c(=O)c3ccccc31)CC(O)C(C)(C)O2 (centres undefined)
Reply text: 3.35% (inactive)

Inquiry: Consider the compound shown here: COc1ccc(CCNCC(O)CSc2ccc(Cl)cc2)cc1OC (centres undefined) What is its recorded growth inhibition?
Reply text: 22% (inactive)

Inquiry: Quick one: growth inhibition for Cn1c([N+](=O)[O-])cnc1CSc1nc(-c2ccccc2)no1 ?
Reply text: 5.25% (inactive)

Inquiry: Need growth inhibition of CCSC1C(O)C(CO)OC1n1cnc2c(=S)nc[nH]c21 (centres undefined) , thanks.
Reply text: 5% (inactive)

Inquiry: Which measured growth inhibition value corresponds to CCc1cc(C)c(C)cc1O ?
Reply text: -24.9% (inactive)

Inquiry: I'd like to know its growth inhibition. The compound in question is CCC[N+](C)(C)CCC#N
Reply text: 17.1% (inactive)

Inquiry: Record request: growth inhibition value, item O=C(c1ccccc1)c1ccc(NC(=O)C(F)(F)F)cc1
Reply text: -0.15% (inactive)

Inquiry: Record request: growth inhibition value, item CN1C2=NCCN2C(=O)c2cc(Cl)ccc21
Reply text: 13.7% (inactive)

Inquiry: Fill in: growth inhibition of CCCCCCCOC(=O)C1(O)CCCCC1 is ___
Reply text: 16.8% (inactive)

Inquiry: Can you share its growth inhibition? I mean this compound: CC(=O)CC(=O)Nc1ccc(-c2ccc(NC(=O)CC(C)=O)c(Cl)c2)cc1Cl
Reply text: -16.6% (inactive)

Inquiry: Can you look up the measured growth inhibition of CC(=O)OCC(O)CS(=O)c1ccc(C)cc1 (centres undefined) for me?
Reply text: -16.1% (inactive)

Inquiry: Dear colleague, I am looking for the recorded growth inhibition of the following compound: CC1=C(CCC(=O)O)C(=O)C(CCC(=O)O)C(C)(C)C1 (centres undefined)
Reply text: 4.6% (inactive)

* * *

# assay-overview: NCI Yeast Anticancer Drug Screen. Data for the bub3 strain (AID 167)
# condition-details: S. cerevisiae bub3 mutant strain, active compounds read high; at 50.0 µM unless noted
Compounds without any hit were thinned out: in the full panel of roughly 79,000, 15% have a hit. Activity calls are given as the source filed them. Cut-off read from the data, not from the text of the source: active = growth inhibition above about 70%; inactive = the rest.
measurement-name: growth inhibition

Inquiry: Please report the recorded growth inhibition for CCC(C)(CC)c1ccc(C)cc1OC .
Reply text: 24.6% (inactive)

Inquiry: # growth inhibition lookup, item CCOC(=O)NC(=O)c1cn(CCOCCOC(=O)NCCCCCCNC(=O)OCCOCCn2cc(C(=O)NC(=O)OCC)c(=O)[nH]c2=O)c(=O)[nH]c1=O
Reply text: -6.9% (inactive)

Inquiry: May I ask what growth inhibition has been recorded for CN1C=C(C(N)=O)Cc2ccsc21 ?
Reply text: -17.1% (inactive)

Inquiry: Entry CC1Cn2c(Cc3ccccc3)nnc2S1 (configuration not stated) : reported growth inhibition = ?
Reply text: -4.6% (inactive)

Inquiry: Give the measured growth inhibition of COc1ccc(C(C)c2cc(N=NC(N)=O)c(OC)cc2O)cc1 (configuration not stated) .
Reply text: 16.9% (inactive)

Inquiry: What growth inhibition value was documented for this compound, CC1C(c2ccccc2)OCCN1CN1C(=O)c2ccccc2C1=O (configuration not stated) ?
Reply text: 17.1% (inactive)

Inquiry: Sample Cc1ccc([N+](=O)[O-])cc1NC(=O)N(Cc1ccccc1)Cc1ccccc1 — what was its growth inhibition?
Reply text: 17.3% (inactive)

Inquiry: Which growth inhibition is listed for C[C@]12CCC(=O)C=C1CC[C@@H]1[C@@H]2C(=O)C[C@]2(C)/C(=C\C(=O)O)CC[C@@H]12 ?
Reply text: -4.5% (inactive)

Inquiry: Which growth inhibition value is on record for CCOC(=O)C(SC(S(=O)(=O)c1ccccc1)S(=O)(=O)c1ccccc1)C(=O)OCC ?
Reply text: -2.05% (inactive)

Inquiry: // growth inhibition lookup, key: N#CC(C(=O)CCC(=O)NCCc1ccccc1)c1nc2ccccc2s1 (configuration not stated)
Reply text: 4.8% (inactive)

Inquiry: Would you mind telling me what growth inhibition value was observed for Cc1nc(SCC(=O)Nc2ccccc2)c2sc(=S)n(-c3ccccc3)c2n1 ?
Reply text: -19.9% (inactive)

Inquiry: # query: growth inhibition of entry O=C(O)C1(C(=O)O)CCCCC1.[NH2-].[NH2-].[Pt+2]
Reply text: 7.6% (inactive)

Inquiry: Given the compound C[N+]1(Cc2csc(-c3ccc(Cl)cc3)n2)CCOCC1 , what is its reported growth inhibition?
Reply text: 0.7% (inactive)

Inquiry: Please report the recorded growth inhibition for CN(/C(=C/C(=O)c1ccccc1)C(=O)c1ccccc1)/C(=C/C(=O)c1ccccc1)C(=O)c1ccccc1 .
Reply text: -4.5% (inactive)

Inquiry: Which growth inhibition value belongs to COc1ccc(NC2Oc3cc4c(cc3C(c3cc(OC)c(O)c(OC)c3)C2C)OCO4)cc1 (configuration not stated) ?
Reply text: 6.6% (inactive)

Inquiry: // lookup growth inhibition for O=C1OCC/C1=C/c1ccc(N=Nc2c(O)ccc3ccccc23)cc1
Reply text: 11.7% (inactive)

Inquiry: Which growth inhibition value is on record for CN1c2ccccc2N(C(=O)c2ccc(Cl)cc2)C(CC(=O)O)c2cccn21 (configuration not stated) ?
Reply text: 38.5% (inactive)

Inquiry: What does the record list as growth inhibition for COc1cccc2c1C(=O)c1c(O)c(CCl)cc(OC)c1C2=O ?
Reply text: 5.6% (inactive)

Inquiry: Recorded growth inhibition for O=C(O)c1c(-c2nccc3ccccc23)[nH]c(-c2ccccc2)c1S(=O)(=O)O , please?
Reply text: -24.4% (inactive)

Inquiry: Look up growth inhibition: CC(=O)Sc1ccc2c(c1)-c1ccccc1C2=O
Reply text: 39.6% (inactive)

Inquiry: Dear colleague, I am looking for the recorded growth inhibition of the following compound: O=C1NCCCC1C(=O)Nc1cccc2c1NCCC2 (configuration not stated)
Reply text: 39.6% (inactive)

Inquiry: Which growth inhibition reading was recorded for the compound Cc1c(C)c(C(=O)Cc2ccccc2)c(C)c(C(=O)Cc2ccccc2)c1C ?
Reply text: 5.55% (inactive)

Inquiry: Please look up its growth inhibition: COc1cccc(C#CC(=O)O)c1
Reply text: -21.9% (inactive)

Inquiry: Dear colleague, I am looking for the recorded growth inhibition of the following compound: O=C(Nc1ccc(O)cc1)c1ccc([N+](=O)[O-])cc1
Reply text: 9.05% (inactive)

Inquiry: If you can, please state the reported growth inhibition value of O=C(NO)Nc1ccccc1Cl .
Reply text: -4.25% (inactive)

Inquiry: Quick one: growth inhibition for N#CC(C(=O)C(=O)Nc1nccs1)c1ccccc1 (configuration not stated) ?
Reply text: 17.2% (inactive)

Inquiry: // query growth inhibition value for entry CCOCc1cccc2ccccc12
Reply text: -6.55% (inactive)

Inquiry: Please report the recorded growth inhibition for NN=C(c1ccc([N+](=O)[O-])cc1)c1ccc([N+](=O)[O-])cc1 .
Reply text: 27% (inactive)

Inquiry: Consider the compound shown here: CCOC(=O)CC(CC(=O)OCC)NC(=O)c1ccc(N(C)C(=O)OCc2ccccc2)cc1 What is its recorded growth inhibition?
Reply text: 14.7% (inactive)

Inquiry: Data request, read-out growth inhibition, for CCOC(=O)c1ccc(O)c(NC(C)=O)c1
Reply text: 10% (inactive)

Inquiry: Fill blank: measured growth inhibition of the compound CN(N=O)C(=O)NCCn1cnc2c(=O)[nH]cnc21 is ____.
Reply text: 1.2% (inactive)

Inquiry: Field request: growth inhibition | item: COC(=O)C(=O)C(C#N)c1ccccc1Cl (configuration not stated)
Reply text: -5.75% (inactive)

Inquiry: May I ask what growth inhibition has been recorded for O=[N+]([O-])c1ccn(Cc2ccccc2)c1 ?
Reply text: -14.2% (inactive)

Inquiry: Which growth inhibition is listed for CC(=O)c1cccc(N=NN(C)C)c1 ?
Reply text: 40.2% (inactive)

Inquiry: Could you tell me which growth inhibition is on file for Cc1cc2nc3c4ccccc4scc-3c2cc1C ?
Reply text: 99.1% (active)

Inquiry: GET /values?readout=growth inhibition&item= Clc1cccc(C2ON=C(c3ccccc3)N2C23CC4CC(CC(C4)C2)C3)c1Cl (configuration not stated)
Reply text: -4% (inactive)

Inquiry: So what does the record say about growth inhibition for C=CCSC[C@H](NC(=O)COc1ccccc1)C(=O)NC(C(=O)OCc1ccc([N+](=O)[O-])cc1)=C(C)C ?
Reply text: 39.4% (inactive)

Inquiry: Find the recorded growth inhibition belonging to COc1ccc(COC(=O)Nc2ccc(Br)cc2)c(OC)c1 and report it.
Reply text: 16.8% (inactive)

Inquiry: Consider the compound shown here: Cc1ccc(N2C(=O)CC(N3CCCCC3)C2=O)cc1 (configuration not stated) What is its recorded growth inhibition?
Reply text: -2.05% (inactive)

Inquiry: I'd like to know its growth inhibition. The compound in question is C/C=C\c1noc2c1C(=O)OC(C)C2 (configuration not stated)
Reply text: 22.4% (inactive)

Inquiry: Request the reported growth inhibition associated with Brc1ccc2c(ccc3c2nnc2ncnn23)c1
Reply text: -1.55% (inactive)

Inquiry: Record request: growth inhibition value, item Cn1c(=O)c2nc(SCC(=O)O)n(C)c2n(C)c1=O
Reply text: 5.35% (inactive)

Inquiry: Please look up its growth inhibition: CCC[n+]1nc2ccccc2c(=Nc2ccccc2[N+](=O)[O-])[n-]1
Reply text: 12.3% (inactive)

Inquiry: I have this compound here, CCOC(=O)CC(C#N)(C#N)CC(=O)OCC , and I need its recorded growth inhibition.
Reply text: 26.8% (inactive)

Inquiry: Requested read-out: growth inhibition. Entry: COc1ccc(/C=C/c2ccc(OC)cc2)cc1
Reply text: 8.7% (inactive)

Inquiry: What measured growth inhibition goes with O=C(NCc1ccccc1)C(=O)NCc1ccccc1 ?
Reply text: -6.9% (inactive)

Inquiry: Please give the measured growth inhibition for this compound: Clc1nc(-c2ccccc2)ns1
Reply text: -6.85% (inactive)
